Values compiled from patent US20250230147A1.

target: c-Cbl (Homo sapiens (Human)); assay: C-Cbl LCK Ub TR-FRET assay (c-cbl Lck HTRF); format: biochemical; conditions: C-cbl Lck HTRF IC50 relative to Cbl-b Lck HTRF IC50
Quick reference for (fold-selectivity) among some compounds

query.smiles	assay.readout	observed.result
Cn1cnnc1[C@@H](F)C1(c2cccc(N3Cc4c(cc(CN5CC(C(F)F)C5)cc4C(F)(F)F)C3=O)c2)COC1	(fold-selectivity)	1.8x

Q: Give (fold-selectivity); test system c-Cbl (Homo sapiens (Human)); compound Cn1cnnc1[C@@H](F)C1(c2cccc(N3Cc4c(cc(CN5CCC6(CC6)C5)cc4C(F)(F)F)C3=O)c2)CC1
A: 2.2x

* * *

Biological target: Cbl-b (Homo sapiens (Human))
Assay: Cbl-b LCK Ub TR-FRET assay (Cbl-b Lck HTRF)
Assay type: biochemical
Method: Compounds were 3-fold serially diluted in DMSO in a 384-well polypropylene plate (#P-05525-BC; Labcyte) to generate a source plate with 10 concentrations of each compound, top concentration=2 mM. […] Plates were read for TR-FRET using an Envision at excitation 340 nm, emission at 615 and 665 nm, 4 flashes per well. […] Cbl-b Lck HTRF data in Table 7 is measured according to Example 76 herein; C-cbl Lck HTRF data is measured according to Example 76 herein.
assay.readout: IC50 (nM)

compound	system.under.test	IC50 [nM]
CC(C)[C@@H]1CN(Cc2cc3c(c(C(F)(F)F)c2)CN(c2cccc(C4([C@H](F)c5nncn5C)COC4)c2)C3=O)CCN1	Cbl-b (Homo sapiens (Human))	68

I. CC(C)[C@H]1CN(C)CCN1Cc1cc2c(c(C(F)(F)F)c1)CN(c1cccc([C@]3([C@@H](F)c4nncn4C)CCO3)c1)C2=O (single isomer, unassigned)
II. Cn1cnnc1[C@@H](F)C1(c2cccc(N3Cc4c(cc(CN5CCC(C)(O)CC5)cc4C(F)(F)F)C3=O)c2)COC1
III. CC1(NCc2cc3c(c(C(F)(F)F)c2)CN(c2cccc(C4(Cc5nncn5C5CC5)CC(F)(F)C4)c2)C3=O)CCC1
Q: Task for the reader: rank each entry by its IC50, from the minimum upward. Please respond with the labels ordered as the question requires.
A: III, I, II

1. Cn1cnnc1C[C@]1(c2cccc(N3Cc4c(cccc4C(F)(F)F)C3=O)c2)C[C@@H](F)C1
2. Cn1cnnc1CC1(c2cccc(N3Cc4c(cc(CN5CCN[C@@H](C6CC6)C5)cc4C(F)(F)F)C3=O)c2)CC(F)(F)C1
Q: Looking only at measured IC50, which entry is lower, 1 or 2 ? Return value: the label identifying the chosen record.
A: 2
(2: 48 nM, 1: 170 nM)

* * *

target: c-Cbl (Homo sapiens (Human), UniProt P22681); experiment: C-Cbl LCK Ub TR-FRET assay (c-cbl Lck HTRF); assay type: biochemical; details: C-cbl Lck HTRF IC50 relative to Cbl-b Lck HTRF IC50
Sequence (P22681 47-435): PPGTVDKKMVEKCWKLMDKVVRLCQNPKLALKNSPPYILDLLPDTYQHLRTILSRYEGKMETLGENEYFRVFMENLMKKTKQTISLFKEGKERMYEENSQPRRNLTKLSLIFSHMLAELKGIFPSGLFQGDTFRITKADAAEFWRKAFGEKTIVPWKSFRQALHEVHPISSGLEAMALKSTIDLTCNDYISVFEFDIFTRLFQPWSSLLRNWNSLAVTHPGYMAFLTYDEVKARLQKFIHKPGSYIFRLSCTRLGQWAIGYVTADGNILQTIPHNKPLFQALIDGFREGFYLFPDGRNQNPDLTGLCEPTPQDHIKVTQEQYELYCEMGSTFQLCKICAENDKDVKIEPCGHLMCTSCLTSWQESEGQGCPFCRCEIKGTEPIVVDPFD
assay.readout: (fold-selectivity)

In the examples that follow, each entry is paired with its recorded (fold-selectivity).
compound	observed.result
COC[C@H]1CCCN1Cc1cc2c(c(C(F)(F)F)c1)CN(c1cccc(C3([C@@H](F)c4nncn4C)COC3)c1)C2=O	1.8x
Cn1cnnc1[C@H](F)C1(c2cccc(N3Cc4c(cc(CN5CC6CC6C5)cc4C(F)(F)F)C3=O)c2)COC1 (some centres unmarked)	1.9x
CCn1cnnc1[C@@H](F)C1(c2cccc(N3Cc4c(cccc4C(F)(F)F)C3=O)c2)COC1	(1.2x)
Cn1cnnc1CC1(c2cc(CCC(C)(C)C)nc(N3Cc4c(cc(CNC5(C)CCC5)cc4C(F)(F)F)C3=O)c2)CCC1	(1.2x)
CC(C)[C@H]1CN(Cc2cc3c(c(C(F)(F)F)c2)CN(c2cccc(C4([C@H](F)c5nncn5C)COC4)c2)C3=O)CCN1	1.2x

Shift focus to the following entry.
Q: Please give measured (fold-selectivity) of the following entry: CN(CCC(C)(C)O)Cc1cc2c(c(C(F)(F)F)c1)CN(c1cccc(C3([C@@H](F)c4nncn4C)COC3)c1)C2=O
A: 1.6x

* * *

molecular target: c-Cbl (Homo sapiens (Human), UniProt P22681); experiment: C-Cbl LCK Ub TR-FRET assay (c-cbl Lck HTRF); format: biochemical; conditions: C-cbl Lck HTRF IC50 relative to Cbl-b Lck HTRF IC50
assay.readout: (fold-selectivity)

Q: Please give measured (fold-selectivity) of the following entry: COCC1CCN(Cc2cc3c(c(C(F)(F)F)c2)CN(c2cccc(C4([C@H](F)c5nncn5C)COC4)c2)C3=O)CC1
A: 1.1x

* * *

target: Cbl-b (Homo sapiens (Human), UniProt Q13191); assay: Cbl-b LCK Ub TR-FRET assay (Cbl-b Lck HTRF); type: biochemical
Sequence (Q13191 40-426): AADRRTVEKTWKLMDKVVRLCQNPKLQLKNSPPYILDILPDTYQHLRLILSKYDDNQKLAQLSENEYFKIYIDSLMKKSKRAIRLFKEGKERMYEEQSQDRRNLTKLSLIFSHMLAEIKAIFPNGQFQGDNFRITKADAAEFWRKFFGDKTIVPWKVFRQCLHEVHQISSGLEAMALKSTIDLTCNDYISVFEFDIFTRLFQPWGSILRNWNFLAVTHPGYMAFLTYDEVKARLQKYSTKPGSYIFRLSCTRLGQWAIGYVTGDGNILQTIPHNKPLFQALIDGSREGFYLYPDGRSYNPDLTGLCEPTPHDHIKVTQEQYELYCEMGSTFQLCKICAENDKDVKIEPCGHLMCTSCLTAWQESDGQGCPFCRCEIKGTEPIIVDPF
assay.readout: IC50 (nM)

a. Cn1cnnc1CC1(c2cc(NCCN3CCOCC3)nc(N3Cc4c(cc(CNC5(C)CCC5)cc4C(F)(F)F)C3=O)c2)CCC1
b. Cn1cnnc1[C@H](F)C1(c2cccc(N3Cc4c(cc(CN5CCOCC5)cc4C(F)(F)F)C3=O)c2)COC1
c. COC1(C)CN(Cc2cc3c(c(C(F)(F)F)c2)CN(c2cccc(C4([C@@H](F)c5nncn5C)COC4)c2)C3=O)C1
d. CC(C)[C@H]1CN(C)CCN1Cc1cc2c(c(C(F)(F)F)c1)CN(c1cc(C3([C@@H](F)c4nncn4C)CCC3)cc(NCCO)n1)C2=O
Q: Ascending sort, IC50. Please respond with the labels ordered as the question requires.
A: d, c, b, a

I. Cn1cnnc1[C@@H](F)C1(c2cccc(N3Cc4c(cc(CN5CC(C(F)F)C5)cc4C(F)(F)F)C3=O)c2)COC1
II. CC(C)[C@H]1CN(C)CCN1Cc1cc2c(c(C(F)(F)F)c1)CN(c1cccc(C3(Cc4nncn4C)CC(F)(F)C3)c1)C2=O [Compound 240]
Q: Looking only at measured IC50, which entry is lower, I or II ? Return value: the label identifying the chosen record.
A: II

A. Cn1cnnc1CC1(c2cccc(N3Cc4c(cc(CNC5(C)CCC5)cc4C(F)(F)F)C3=O)c2)CC(F)(F)C1
B. Cn1cnnc1[C@@H](F)C1(c2cccc(N3Cc4c(cc(CN5CCOCC5)cc4C(F)(F)F)C3=O)c2)COC1
C. CCC1(O)CN(Cc2cc3c(c(C(F)(F)F)c2)CN(c2cccc(C4([C@H](F)c5nncn5C)COC4)c2)C3=O)C1
Q: Task for the reader: rank each entry by its IC50, from the minimum upward. Please respond with the labels ordered as the question requires.
A: A, C, B

1. CCCc1cc(C2(Cc3nncn3C)CCC2)cc(N2Cc3c(cc(CNC4(C)CCC4)cc3C(F)(F)F)C2=O)n1
2. Cn1cnnc1[C@@H](F)C1(c2cccc(N3Cc4c(cc(CC5CNC5)cc4C(F)(F)F)C3=O)c2)COC1
Q: IC50 comparison. Which is larger, 1 or 2 ? Return value: the label identifying the chosen record.
A: 2
(2: 200 nM, 1: 13 nM)

* * *

biological target: Cbl-b (Homo sapiens (Human), UniProt Q13191); assay: Cbl-b LCK Ub TR-FRET assay (Cbl-b Lck HTRF); format: biochemical
assay.readout: IC50 (nM)

molecule	IC50 (nM)
Cn1cnnc1[C@H](F)C1(c2cccc(N3Cc4c(cc(CN5CC[C@@H](F)C5)cc4C(F)(F)F)C3=O)c2)COC1 [Compound 80]	110
C[C@H]1CN(Cc2cc3c(c(C(F)(F)F)c2)CN(c2cccc(C4([C@@H](F)c5nncn5C)COC4)c2)C3=O)CCCO1 [Compound 118]	7
Cc1ncn(CC2(c3cccc(N4Cc5c(cc(CN6CCN(C)C[C@@H]6C(C)C)cc5C(F)(F)F)C4=O)c3)COC2)n1 [Compound 255]	20000
Cn1cnnc1[C@H](F)C1(c2cccc(N3Cc4c(cc(CN5CC6CC6C5)cc4C(F)(F)F)C3=O)c2)COC1 (stereo partly shown) [Compound 84]	62
Cn1cnnc1CC1(c2cc(OC3CCCC3)cc(N3Cc4c(cc(CNC5(C)CCC5)cc4C(F)(F)F)C3=O)c2)CC(F)(F)C1 [Compound 478]	82

a. Cn1cnnc1[C@@H](F)C1(c2cccc(N3Cc4c(cc(CN5CC(C)(O)C5)cc4C(F)(F)F)C3=O)c2)CC(F)(F)C1 [Compound 52]
b. CC[C@H](C)Nc1cc(C2(Cc3nncn3C)COC2)cc(N2Cc3c(cccc3C(F)(F)F)C2=O)n1 [Compound 481]
Q: IC50 comparison. Which is larger, a or b ? Return value: the label identifying the chosen record.
A: b
(b: 110 nM, a: 62 nM)

1. CC(C)[C@H]1CN(C)CCN1Cc1cc2c(c(C(F)(F)F)c1)CN(c1cc(C3(Cc4nncn4C)CCC3)cc(NC(=O)CCl)n1)C2=O [Compound 333]
2. CC(C)[C@H]1CN(C)CCN1Cc1cc2c(c(C(F)(F)F)c1)CN(c1cccc(C3([C@H](F)c4nncn4-c4ccccc4)COC3)c1)C2=O [Compound 260]
3. Cn1cnnc1[C@@H](F)C1(c2cccc(N3Cc4c(cc(CN)cc4C(F)(F)F)C3=O)c2)COC1 [Compound 69]
4. Cn1cnnc1CC1(c2cccc(N3Cc4c(cc([C@H](N)C5CC5)cc4C(F)(F)F)C3=O)c2)CC(F)(F)C1 [Compound 435]
Q: Task for the reader: rank each entry by its IC50, from the minimum upward. Please respond with the labels ordered as the question requires.
A: 4, 1, 3, 2
